# assayedSystem: hGIPR (Homo sapiens, UniProt P48546)
# Sequence (P48546 22-466): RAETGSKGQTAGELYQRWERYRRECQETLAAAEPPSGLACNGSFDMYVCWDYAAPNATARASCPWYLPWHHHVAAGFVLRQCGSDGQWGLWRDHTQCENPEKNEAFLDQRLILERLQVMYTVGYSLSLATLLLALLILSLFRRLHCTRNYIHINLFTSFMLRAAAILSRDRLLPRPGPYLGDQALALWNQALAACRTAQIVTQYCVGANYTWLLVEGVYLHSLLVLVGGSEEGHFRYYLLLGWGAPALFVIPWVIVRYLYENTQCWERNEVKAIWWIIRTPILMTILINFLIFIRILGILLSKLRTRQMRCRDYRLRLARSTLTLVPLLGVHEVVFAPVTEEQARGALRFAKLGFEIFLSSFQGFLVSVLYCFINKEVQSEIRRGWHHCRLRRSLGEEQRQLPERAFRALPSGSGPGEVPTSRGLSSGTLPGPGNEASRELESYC
# assayComment: Functional cAMP activity in the presence of 1% HSA
# Type: cell-based
# condition: read-out: cAMP Rel EC50, hGIPR
Starred links: 1 amine or outer side, 2 acyl side, 3 side chain; linkers in the order of their positions; H or OH if unused. Non-standard residues stand in square brackets, D forms with d. Groups on a side chain read outwards from the residue. *: point of attachment. C20 diacid = O=C(O)CCCCCCCCCCCCCCCCCCC(=O)*; C18 diacid = O=C(O)CCCCCCCCCCCCCCCCC(=O)*; αMePhe(2-F) = C[C@](N)(Cc1ccccc1F)C(=O)O; γGlu = O=C(O)[C@H](CCC(=O)[*:2])N[*:1]; αMe4Pal = C[C@](N)(Cc1ccncc1)C(=O)O; αMeY = C[C@](N)(Cc1ccc(O)cc1)C(=O)O; 4Pal = N[C@@H](Cc1ccncc1)C(=O)O; αMeL = CC(C)C[C@](C)(N)C(=O)O; αMeS = C[C@](N)(CO)C(=O)O; Orn = NCCC[C@H](N)C(=O)O; AEEA = NCCOCCOCC(=O)O; Aib = CC(C)(N)C(=O)O
// classify: if (EC50 < 20 nM) fulfilled else not fulfilled

Examples with answers:
# substance, class
measured = [
    ("H-Y[Aib]QGTFTSD[4Pal]SK[αMeL]LDKK([AEEA-γGlu-C18 diacid])AQ[Aib]AFIEYLIA[Aib]GESSGEPPPSGS-NH2 [Example 287]", "fulfilled"),
    ("H-Y[Aib]QGT[αMePhe(2-F)]TSD[4Pal][αMeS]I[αMeL]LD[Orn]K([AEEA-γGlu-C18 diacid])AA[Aib]EFI[dE][αMeY]LIEGGPSSGEPPPSGGGE-NH2 [Example 746]", "fulfilled"),
    ("H-Y[Aib]QGTFTSD[4Pal]S[Orn][αMeL]LD[Orn]K([γGlu-γGlu-C18 diacid])AQ[αMe4Pal]AFIEYLIAGGPSSGEPPPSGTE-NH2 [Example 984]", "not fulfilled"),
    ("H-Y[Aib]QGTFTSD[4Pal]SR[αMeL]LDKK([AEEA-AEEA-γGlu-C18 diacid])AQ[αMe4Pal]AFIEYLIE[Aib]GPSSGAPPPSGS-NH2 [Example 815]", "fulfilled"),
    ("H-Y[Aib]QGTFTSDFS[Orn][αMeL]LDKK([AEEA-γGlu-C20 diacid])AQ[Aib]AFIEWLLEGGPSSGAPPPSGS-NH2 [Example 78]", "not fulfilled"),
]

Okay, next one:
Lab note: EC50 threshold 20 nM. Does this substance come in strictly under it? H-Y[Aib]QGTFTSD[4Pal]SQ[αMeL]LDKK([γGlu-γGlu-C18 diacid])AQ[αMe4Pal]AFIE[αMe4Pal]LIE[Aib]GPSSGAPPPSGE-NH2 [Example 1120]
fulfilled
